Where these numbers come from: ChEMBL document CHEMBL2163270

procedure-summary: Aqueous solubility of the compound at pH 5 after 90 mins by laser nephelometric analysis
Type: physicochemical
condition-set: aqueous medium
measured-parameter: solubility kinetic at 1.5 h (µg/mL)
Give bare numbers, in µg/mL.

In: Give the reported solubility kinetic at 1.5 h for this compound. CC(C)N(Cc1ccc2c(c1)C=CC(C)(C)O2)S(=O)(=O)c1ccccn1
Out: 16

====

procedure-summary: 1-Octanol-phosphate buffer distribution coefficient, log P of the compound at pH 7.4 by HPLC analysis
Format: physicochemical
measured-parameter: logD

Example cases with answers are listed next.
- structure: "CC(C)CN(Cc1ccc2c(c1)C=CC(C)(C)O2)S(=O)(=O)c1nccn1C"
  logD: 3.1
- structure: "CC1(C)C=Cc2cc(CN(C3CC3)S(=O)(=O)c3ccccn3)ccc2O1"
  logD: 3
- structure: "CC1(C)C=Cc2cc(CN(CC3CC3)S(=O)(=O)c3ccccn3)ccc2O1"
  logD: 3.1
- structure: "CC(C)CN(Cc1ccc2c(c1)C=CC(C)(C)O2)S(=O)(=O)c1ccncc1"
  logD: 3.6

For each of the items listed, what is its logD?
1. CC1(C)C=Cc2cc(CN(C3CCCC3)S(=O)(=O)c3ccccn3)ccc2O1
2. COc1ccc(S(=O)(=O)N(Cc2ccc3c(c2)C=CC(C)(C)O3)c2ccccc2)cc1OC

Out:
1. 3.8
2. 3.7

====

Assign pIC50 to each entry below.
procedure-summary: Cytotoxicity against human LN229 cells transfected with V6R incubated for 1 hr under normoxic condition followed by 3 days under hypoxic condition by SRB assay
Format: functional, cell-based
condition-set: LN-229
Numbers only, as −log10 of the molar value.

A selection of reference data follows.
- structure: "CC(C)N(Cc1ccc2c(c1)C=CC(C)(C)O2)S(=O)(=O)c1ccccn1"
  pIC50: 3.90
- structure: "COc1cc(CN(C(C)C)S(=O)(=O)c2ccccn2)cc2c1OC(C)(C)C=C2"
  pIC50: 3.84

In: Please look at this compound and report its pIC50: CC(C)CN(Cc1cc(O)c2c(c1)C=CC(C)(C)O2)S(=O)(=O)c1ccncc1
Out: 3.95

====

Kindly state Activity for each of the entries shown.
target-system: Histone acetyltransferase p300 (Homo sapiens) (UniProt Q09472)
Sequence (Q09472 whole entry, the tested form may be a part): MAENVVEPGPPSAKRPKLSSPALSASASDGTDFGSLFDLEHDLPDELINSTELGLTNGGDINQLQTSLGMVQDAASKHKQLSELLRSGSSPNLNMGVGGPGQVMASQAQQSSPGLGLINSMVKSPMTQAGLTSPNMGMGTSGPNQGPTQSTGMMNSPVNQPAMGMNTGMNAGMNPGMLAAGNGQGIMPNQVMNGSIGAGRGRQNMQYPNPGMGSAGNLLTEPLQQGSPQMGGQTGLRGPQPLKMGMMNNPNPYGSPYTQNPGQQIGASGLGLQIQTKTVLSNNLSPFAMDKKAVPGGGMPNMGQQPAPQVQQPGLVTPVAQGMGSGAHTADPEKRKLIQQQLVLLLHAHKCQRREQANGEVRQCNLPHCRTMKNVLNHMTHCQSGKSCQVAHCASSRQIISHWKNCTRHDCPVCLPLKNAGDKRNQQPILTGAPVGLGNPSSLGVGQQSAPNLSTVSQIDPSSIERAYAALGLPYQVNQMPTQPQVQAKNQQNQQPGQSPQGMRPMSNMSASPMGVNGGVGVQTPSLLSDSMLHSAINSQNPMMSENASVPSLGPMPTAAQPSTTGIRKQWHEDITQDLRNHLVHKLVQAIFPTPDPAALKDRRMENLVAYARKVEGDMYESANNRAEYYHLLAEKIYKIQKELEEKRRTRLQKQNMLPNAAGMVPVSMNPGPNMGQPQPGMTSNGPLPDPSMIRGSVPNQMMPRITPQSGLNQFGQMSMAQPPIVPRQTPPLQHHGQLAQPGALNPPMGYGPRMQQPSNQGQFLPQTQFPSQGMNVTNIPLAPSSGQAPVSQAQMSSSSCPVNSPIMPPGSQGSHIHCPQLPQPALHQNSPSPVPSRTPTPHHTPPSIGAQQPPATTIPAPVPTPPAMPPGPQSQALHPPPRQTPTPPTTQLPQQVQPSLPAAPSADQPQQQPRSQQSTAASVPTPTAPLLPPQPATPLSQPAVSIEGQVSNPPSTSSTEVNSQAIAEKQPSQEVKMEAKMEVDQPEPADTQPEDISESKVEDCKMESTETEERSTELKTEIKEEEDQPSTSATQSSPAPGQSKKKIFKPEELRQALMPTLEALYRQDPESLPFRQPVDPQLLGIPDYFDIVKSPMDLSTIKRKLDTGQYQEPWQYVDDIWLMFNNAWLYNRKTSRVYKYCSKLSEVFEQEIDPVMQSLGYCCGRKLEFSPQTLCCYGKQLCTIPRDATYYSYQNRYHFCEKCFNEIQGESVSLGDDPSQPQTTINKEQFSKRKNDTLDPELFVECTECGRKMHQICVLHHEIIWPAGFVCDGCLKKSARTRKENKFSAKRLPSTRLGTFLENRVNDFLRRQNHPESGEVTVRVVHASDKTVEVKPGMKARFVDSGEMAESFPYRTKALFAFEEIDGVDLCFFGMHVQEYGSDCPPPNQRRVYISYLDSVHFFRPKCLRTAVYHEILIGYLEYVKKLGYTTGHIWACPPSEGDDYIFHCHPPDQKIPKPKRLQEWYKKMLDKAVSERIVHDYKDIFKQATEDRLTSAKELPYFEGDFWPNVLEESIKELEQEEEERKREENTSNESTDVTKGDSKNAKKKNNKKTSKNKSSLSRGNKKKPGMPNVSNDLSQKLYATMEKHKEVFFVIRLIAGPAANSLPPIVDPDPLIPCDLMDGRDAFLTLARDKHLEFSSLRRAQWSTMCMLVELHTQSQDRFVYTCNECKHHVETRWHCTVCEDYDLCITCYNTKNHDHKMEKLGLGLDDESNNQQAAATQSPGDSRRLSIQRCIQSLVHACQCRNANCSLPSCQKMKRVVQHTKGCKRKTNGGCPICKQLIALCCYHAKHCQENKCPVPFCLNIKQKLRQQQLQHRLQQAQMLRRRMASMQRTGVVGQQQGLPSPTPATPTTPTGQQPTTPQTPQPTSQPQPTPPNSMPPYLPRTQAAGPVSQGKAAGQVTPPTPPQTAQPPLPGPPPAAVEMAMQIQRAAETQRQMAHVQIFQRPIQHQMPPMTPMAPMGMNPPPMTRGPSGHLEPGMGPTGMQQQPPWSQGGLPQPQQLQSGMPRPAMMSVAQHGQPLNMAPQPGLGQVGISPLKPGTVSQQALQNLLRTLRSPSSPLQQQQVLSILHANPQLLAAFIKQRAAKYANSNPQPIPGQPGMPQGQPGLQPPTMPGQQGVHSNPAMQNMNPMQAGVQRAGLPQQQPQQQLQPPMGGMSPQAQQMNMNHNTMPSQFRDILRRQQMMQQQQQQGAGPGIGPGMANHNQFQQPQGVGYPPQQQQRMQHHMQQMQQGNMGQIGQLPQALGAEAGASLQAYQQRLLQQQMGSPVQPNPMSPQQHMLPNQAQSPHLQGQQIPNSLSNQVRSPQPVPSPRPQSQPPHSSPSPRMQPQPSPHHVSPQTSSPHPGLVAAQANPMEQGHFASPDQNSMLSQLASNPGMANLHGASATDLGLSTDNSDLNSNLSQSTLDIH
procedure-summary: Inhibition of P300 CH1 domain-mediated HIF1 transcriptional activity in human LN229-V6R cells assessed as remaining activity at 2.5 uM incubated for 1 hr under normoxia followed by 24 hrs under hypoxia by luciferase reporter gene assay
Assay type: cell-based
Numbers only, in %.

- structure: "CC(C)CN(Cc1cc(O)c2c(c1)C=CC(C)(C)O2)S(=O)(=O)c1ccncc1"
  measured-parameter: "Activity"
  result-unit: "%"
  val: 59
- structure: "CC1(C)C=Cc2cc(CN(CC3CC3)S(=O)(=O)c3ccccn3)ccc2O1"
  measured-parameter: "Activity"
  result-unit: "%"
  val: 49
- structure: "CC1(C)C=Cc2cc(CN(C3CCC3)S(=O)(=O)c3ccccn3)ccc2O1"
  measured-parameter: "Activity"
  result-unit: "%"
  val: 53
- structure: "CC1(C)C=Cc2cc(CN(C3CC3)S(=O)(=O)c3ccccn3)ccc2O1"
  measured-parameter: "Activity"
  result-unit: "%"
  val: 71
- structure: "CC1(C)C=Cc2cc(CN(C3CCCC3)S(=O)(=O)c3ccccn3)ccc2O1"
  measured-parameter: "Activity"
  result-unit: "%"
  val: 60

Please report Activity for every entry that follows.
1. COc1cc(CN(C(C)C)S(=O)(=O)c2ccccn2)cc2c1OC(C)(C)C=C2
2. CC(C)CN(Cc1ccc2c(c1)C=CC(C)(C)O2)S(=O)(=O)c1ccncc1
3. CC(C)CN(Cc1ccc2c(c1)C=CC(C)(C)O2)S(=O)(=O)c1ccccn1
4. CC(C)CN(Cc1ccc2c(c1)C=CC(C)(C)O2)S(=O)(=O)c1nccn1C
5. CC(C)CN(Cc1cc(O)c2c(c1)C=CC(C)(C)O2)S(=O)(=O)c1ccccn1

Out:
[61, 63, 85, 74, 43]
